# Tested on: rodent lifetime carcinogenesis bioassay, tumor incidence TD50
# METHOD: carcinogenic potency in animals, long-term in vivo studies, CPDB compilation (AID 1745844)
# CONDITION_CONTEXT: rat; strain Fischer 344; females; in drinking water; site: clitoral gland; lesion: adenoma; dosed 104 weeks; study length 104 weeks

| TEST_SMILES | TD50 |
| --- | --- |
| C=CC(N)=O | 19 mg/kg/day |

* * *

# System: rodent lifetime carcinogenesis bioassay, tumor incidence TD50
# METHOD: carcinogenic potency in animals, long-term in vivo studies, CPDB compilation (AID 1745844)
# CONDITION_CONTEXT: rat; strain F344/DuCrj; males; in drinking water; site: forestomach; lesion: papilloma; dosed 50 weeks; study length 50 weeks
MEASUREMENT_TYPE: TD50 (mg/kg/day)

| TEST_SMILES | READOUT_UNIT | REPORTED_RESULT |
| --- | --- | --- |
| CCCCN(N=O)C(N)=O | mg/kg/day | 3.25 |

The values you see were collected from PubChem BioAssay AID1745844.
